Measured Ratio of MSA-KD to HSA-KD, listed per entry.
Target: T1, mouse serum albumin (mouse, UniProt P07724 25-608)
T1 construct: also called MSA
T1 sequence (P07724 25-608 limits assumed): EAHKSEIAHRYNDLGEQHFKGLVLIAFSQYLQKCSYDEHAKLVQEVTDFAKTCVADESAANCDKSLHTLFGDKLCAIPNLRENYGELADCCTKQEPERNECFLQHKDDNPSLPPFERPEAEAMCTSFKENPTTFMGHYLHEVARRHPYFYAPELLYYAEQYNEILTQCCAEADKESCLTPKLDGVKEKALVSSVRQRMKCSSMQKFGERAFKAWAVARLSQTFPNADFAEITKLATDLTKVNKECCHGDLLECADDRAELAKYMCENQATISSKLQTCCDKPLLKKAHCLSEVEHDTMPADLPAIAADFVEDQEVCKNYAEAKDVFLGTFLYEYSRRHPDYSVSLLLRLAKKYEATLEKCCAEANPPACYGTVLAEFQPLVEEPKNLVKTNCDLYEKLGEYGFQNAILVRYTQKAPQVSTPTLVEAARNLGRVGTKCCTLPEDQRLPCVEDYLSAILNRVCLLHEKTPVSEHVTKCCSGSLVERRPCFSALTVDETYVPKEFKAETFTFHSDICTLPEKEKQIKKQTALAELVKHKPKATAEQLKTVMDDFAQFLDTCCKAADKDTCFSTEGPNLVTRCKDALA
Assay: ratio of the Octet KD for mouse serum albumin to that for human serum albumin
# print the numeric value only

These recorded examples may help you get a feel for the data.
binder	Ratio of MSA-KD to HSA-KD
CNG-HSA-106 (VHH) VHH: KVQLLESGGGLVQPGGSLRLSCAASGFTFSSFGMSWVRQAPGKGLEWVSSISGSGSDTLYADSVRGRFTISRDNSKNTLYLQMDSLRAEDTAVYYCTIGGSRSISSQGTLVTVSS	3.41
CNG-HSA-103 (VHH) VHH: KVQLVESGGGLVQPGGSLRLSCAASGFTFSSFGMTWVRQAPGKGLEWVSSISGSGSDTLYADSVRGRFTISRDNSKNTLYLQMNSLRPEDTAVYYCTIGGSLSPSSQGTLVTVSS	3.09
CNG-HSA-107 (VHH) VHH: KVQLLESGGGLVQPGGSLRLSCAASGFTFSSFGMSWVRQAPGKGLEWVSSISGSGSDTLYADSVRGRFTISRDNSKNTLYLQMNSLRAEDTAVYYCSIGGSLIRSSQGTLVTVSS	2.72
CNG-HSA-113 (VHH) VHH: GVQLLESGGGLVQPGGSLRLSCAASGFTFSSFGMSWVRQAPGKGLEWVSSISGTGSDTLYADSVKGRFTISRDNSKNTLYLQMNSLRPEDTAVYYCTIGGSLRYSSQGTLVTVSS	3.38

Now let's try a different one.
Q: // Ratio of MSA-KD to HSA-KD lookup, key: CNG-HSA-116 (VHH) VHH: KVQLVESGGGLVQPGGSLRLSCAASGFTFSSFGMSWVRQAPGKGPEWVSSISGSGSDTLYADSVKGRFTISRDNSKNTLYLQMNSLRAEDTAVYYCTIGGSLRASSQGTLVTVSS
Result: 0.98
